Test system: OVCAR-4
Test: NCI tumour cell line growth inhibition, 48 h
Calls of active or inactive are those of the source. Rule as the data show it: active = GI50 up to about 1.1 µM and inactive = higher.
# GI50 values compiled below

For orientation, consider the following solved cases.
compound	target entity	GI50
O=C(O)Cc1cc(Cl)ccc1O	OVCAR-4	> 100 µM (inactive)
CC12CCC3(C1)[C@H](CC2=O)C[C@@H](OC(=O)c1ccccc1)C1C(C)(CO)CCC[C@@]13C (some centres undefined)	OVCAR-4	1.44 µM (inactive)
O=C(O)C12CCCC(CCC1)C2	OVCAR-4	> 100 µM (inactive)
CC(=O)O[C@]12CCCCCC1C1(O)C(O)CCC[C@H]12 (some centres undefined)	OVCAR-4	> 100 µM (inactive)
COCN1C(=O)[C@@H]2C[C@@H](OC/C=C/CBr)CN2C(=O)c2ccccc21	OVCAR-4	14.6 µM (inactive)

Input line: Would you kindly share the measured GI50 for `CN(C)c1ccc(/C=C2\CNC/C(=C\c3ccc(N(C)C)cc3)C2=O)cc1` ?
Output line: 13.3 µM (inactive)

Input line: // query: `O=C1CC(c2ccccc2)=Nc2ccccc2N1`
Output line: > 100 µM (inactive)

Input line: CC1OC(OC2C(O)COC(OC3C(C)OC(OC4C(OC(=O)[C@]56CCC(C)(C)C[C@@H]5C5=CCC7[C@@]8(C)C[C@H](O)[C@H](OC9OC(CO)C(O)C(OC%10OC(CO)C(O)C(O)C%10O)C9O)[C@@](C)(CO)[C@@H]8CC[C@@]7(C)[C@]5(C)CC6)OCC(O)C4O)C(O)C3O)C2O)C(O)C(O)C1O (some centres undefined) , same question.
Output line: 14.9 µM (inactive)

Input line: Same question, `Cc1cccc2c(N)c3cccc(C(=O)NCC[N+](C)(C)Cc4ccc(S(C)(=O)=O)cc4)c3nc12` this time
Output line: 41.4 µM (inactive)

====

System: RXF 393
Assay: NCI tumour cell line growth inhibition, 48 h
Calls of active or inactive are those of the source. Rule as the data show it: active = GI50 up to about 1.1 µM and inactive = higher.
result type: GI50

> print(dat)
                                   molecule          test.result
1              CN[C@@H](C)[C@H](NC)c1ccccc1  > 100 µM (inactive)
2  Cc1ccc(Nc2nc(C)c(C(=O)CC(=O)C(=O)Nc3c(C)cccc3C(C)(C)C)s2)cc1  > 100 µM (inactive)
3   c1ccc(/C(=N/Nc2nc3ccccc3s2)C2CCCCC2)nc1   11.7 µM (inactive)
4  O=C(c1ccccc1)n1c2ccc(Br)cc2c2nc3ccccc3nc21  > 100 µM (inactive)
5  [O-][S@@+]1c2ccc3ccccc3c2N[C@@H]2[C@H]1[C@H]1C=C[C@@H]2C1   19.5 µM (inactive)
6                Cn1ccnc1CCc1ccc(Cl)c(Cl)c1  > 100 µM (inactive)

Input line: Consider the molecule `Cn1c(=O)oc2cc(C(=O)CSC(=S)N3CCCCCC3)ccc21` and give its measured GI50.
Output line: > 100 µM (inactive)

Input line: Proceed to `COc1ccc(NC(=O)CC(=O)n2nc(-c3ccccc3)c(/N=N/c3ccccc3C)c2-c2ccccc2)cc1`
Output line: 17.3 µM (inactive)

Input line: Repeat with COc1c(C)c2c(c(O)c1C/C=C(\C)CCC(=O)O)C(=O)OC2 [MYCOPHENOLIC ACID]
Output line: 2.78 µM (inactive)

Input line: Another molecule: O=C1OCC(C(=O)c2cccc(O)c2)C1=O (configuration not stated)
Output line: > 100 µM (inactive)

Input line: Same lookup for O=C1C(Cl)=C(Cl)C(Cl)(Cl)C(Cl)C1(Cl)Cl (configuration not stated) , please.
Output line: 20 µM (inactive)

Input line: Then `Nc1ccc2c(c1)C(=O)N(O)C2=O` ?
Output line: > 100 µM (inactive)
